Test system: Histophilus somni
Test: minimum inhibitory concentration (MIC)
Conditions: isolate (source animal id): 246
# minimum inhibitory concentration values compiled below
// note: answer is a bare numeric in mg/L

These recorded examples may help you get a feel for the data.
{"molecule": "CNC(C)C1CCC(N)C(OC2C(N)CC(N)C(OC3OCC(C)(O)C(NC)C3O)C2O)O1 (stereo unspecified) [Gentamicin]", "minimum inhibitory concentration / mg/L": 2}
{"molecule": "NC[C@@H]1O[C@H](O[C@H]2[C@@H](O)[C@H](O[C@@H]3[C@@H](O)[C@H](N)C[C@H](N)[C@H]3O[C@H]3O[C@H](CN)[C@@H](O)[C@H](O)[C@H]3N)O[C@@H]2CO)[C@H](N)[C@@H](O)[C@@H]1O [Neomycin]", "minimum inhibitory concentration / mg/L": 32}

Continue with the next molecule.
(Q) Return reported minimum inhibitory concentration. Input molecule: CC[C@H]1OC(=O)C[C@@H](O)[C@H](C)[C@@H](O[C@@H]2O[C@H](C)[C@@H](O)[C@H](N(C)C)[C@H]2O)[C@@H](CCN2C[C@H](C)C[C@H](C)C2)C[C@@H](C)C(=O)/C=C/C(C)=C/[C@@H]1CO[C@@H]1O[C@H](C)[C@@H](O)[C@@H](OC)[C@H]1OC [Tilmicosin]
(A) 8

----------
# minimum inhibitory concentration values compiled below
System: Histophilus somni
Test: minimum inhibitory concentration (MIC)
Conditions: isolate (source animal id): 341

{"lineNotation": "CO/N=C(\\C(=O)N[C@@H]1C(=O)N2C(C(=O)O)=C(CSC(=O)c3ccco3)CS[C@H]12)c1csc(N)n1", "targetDesc": "Histophilus somni", "minimum inhibitory concentration": "≤ 0.25 µg/mL"}
{"lineNotation": "CCCNC[C@]1(O)[C@H](C)O[C@@H](O[C@H]2[C@H](C)[C@@H](O[C@@H]3O[C@H](C)C[C@H](N(C)C)[C@H]3O)[C@](C)(O)C[C@@H](C)CN[C@H](C)[C@@H](O)[C@](C)(O)[C@@H](CC)OC(=O)[C@@H]2C)C[C@@]1(C)OC", "targetDesc": "Histophilus somni", "minimum inhibitory concentration": "≤ 8 µg/mL"}
{"lineNotation": "CN1C[C@@H]2C[C@H]1CN2c1cc2c(cc1F)c(=O)c(C(=O)O)cn2C1CC1", "targetDesc": "Histophilus somni", "minimum inhibitory concentration": "≤ 0.12 µg/mL"}
{"lineNotation": "COc1cc(Cc2cnc(N)nc2N)cc(OC)c1OC.Cc1cc(NS(=O)(=O)c2ccc(N)cc2)no1", "targetDesc": "Histophilus somni", "minimum inhibitory concentration": "≤ 2 µg/mL"}

Continue with the next molecule.
(Q) Return reported minimum inhibitory concentration. Input molecule: COc1cc(NS(=O)(=O)c2ccc(N)cc2)nc(OC)n1
(A) ≤ 256 µg/mL

----------
Test system: Escherichia coli
Experiment: minimum inhibitory concentration (MIC)
Conditions: isolate (source animal id): 116
valueKind: minimum inhibitory concentration (µg/mL)
// note: answer is a bare numeric in µg/mL

{"lineNotation": "CCCN1C[C@H](C)[C@@H](O)[C@](C)(O)[C@@H](CC)OC(=O)[C@H](C)[C@@H](O[C@H]2C[C@@](C)(OC)[C@@H](O)[C@H](C)O2)[C@H](C)[C@@H](O[C@@H]2O[C@H](C)C[C@H](N(C)C)[C@H]2O)[C@](C)(O)C[C@H]1C", "minimum inhibitory concentration (µg/mL)": 4}

Continue with the next compound.
(Q) Return reported minimum inhibitory concentration. Input compound: CC1(C)S[C@@H]2[C@H](NC(=O)[C@H](N)c3ccccc3)C(=O)N2[C@H]1C(=O)O
(A) 2
